All values here come from ChEMBL document CHEMBL1201862.

Test system: CCRF-CEM
experiment-description: NCI tumour cell line growth inhibition, 48 h
Active and inactive are the calls of the source. Cut-off read from the data, not from the text of the source: active = GI50 up to about 1.1 µM and inactive = higher.
Hello, when you answer, please use one of the following outcomes: T = active, F = inactive

These solved cases illustrate the format of a correct answer.
[[record]]
compound = "Nc1ccc2[nH]c(C(=O)N3CC(CCl)c4c3cc(N)c3ccccc43)cc2c1 (centres undefined)"
assigned_category = "T"

[[record]]
compound = "CCCCN(CCCC)CCCn1cnc2ncccc2c1=O"
assigned_category = "F"

[[record]]
compound = "O=c1cccccc1NCCCCNc1cccccc1=O"
assigned_category = "F"

[[record]]
compound = "N#Cc1ccc(NC(=O)C(CC(=O)OCc2ccccc2)NC(=O)OCc2ccccc2)cc1 (centres undefined)"
assigned_category = "F"


Recorded test outcome, item `CCC(=O)O[C@H]1CC[C@H]2[C@@H]3CCC4=C/C(=N/OC(=O)c5cccc6c(=O)c7ccccc7[nH]c56)CC[C@]4(C)[C@H]3CC[C@]12C`
F

Recorded test outcome, item COc1ccc2c(c1)CC1Cc3ccccc3CCN1C2 (centres undefined)
F

Recorded test outcome, item `O=C(CCN(CCO)CCO)Nc1ccc2c(c1)C(=O)c1ccc(NC(=O)CCN(CCO)CCO)cc1C2=O`
F

Recorded test outcome, item `Cc1ccc(-c2c(C#N)c(-c3ccc(N(C)C)cc3)c(C#N)c(=O)n2NS(=O)(=O)c2ccccc2)cc1`
F

Recorded test outcome, item COc1cc(-c2coc3c(OC)c(OC4OC(CO)C(O)C(O)C4O)c(OC)cc3c2=O)cc(OC)c1C (centres undefined)
F

---

Give GI50 for every item shown.
System: A498
experiment-description: NCI tumour cell line growth inhibition, 48 h
Calls of active or inactive are those of the source. Cut-off read from the data, not from the text of the source: active = GI50 up to about 1.1 µM and inactive = higher.

[[record]]
molecule = "COC(=O)NC(=O)c1cn(CCCOC(=O)CCCCCCCCC(=O)OCCCn2cc(C(=O)NC(=O)OC)c(=O)[nH]c2=O)c(=O)[nH]c1=O"
readout_name = "GI50"
obs_value = "> 100 µM (inactive)"


Please give GI50, item by item, for the list that follows.
1. Cc1ccc(-c2c(C#N)c(-c3ccc(N(C)C)cc3)c(C#N)c(=O)n2NS(=O)(=O)c2ccccc2)cc1
2. C=Cc1cncc(C#N)c1CCc1c(C#N)cncc1C=C
3. COC(=O)C1=C2SCc3ccc(cc3)CSC3=C(C(=O)OC)SC(=C(S2)S1)S3
4. Cc1nc2ccccc2[nH]/c1=N/Nc1ccccc1
5. O=C1N/C(=N/N=C/c2ccccc2)N/C1=C\c1cccs1
6. Nc1ncnc2c1ncn2[C@@H]1O[C@H](COP(=O)(O)OP(=O)(O)OC[C@H]2O[C@@H](OCCCO)[C@H](O)[C@@H]2O)[C@@H](O)[C@H]1O
7. Cc1ccc(S(N)(C(=O)Nc2cccc3ccccc23)[N+](=O)[O-])cc1 (configuration not stated)

1. 51.4 µM (inactive)
2. > 10 µM (inactive)
3. > 100 µM (inactive)
4. 31.8 µM (inactive)
5. 13 µM (inactive)
6. > 100 µM (inactive)
7. > 100 µM (inactive)

---

Give GI50 for every item shown.
System: HOP-92
experiment-description: NCI tumour cell line growth inhibition, 48 h
Active and inactive are the calls of the source. Rule as the data show it: active = GI50 up to about 1.1 µM and inactive = higher.

[[record]]
compound = "COC(=O)C1SC[C@H]2C(=O)N(c3ccccc3)C(=O)N12 (stereo not given in full)"
readout_name = "GI50"
obs_value = "85.3 µM (inactive)"

[[record]]
compound = "O=C1NCC2(CCN(Cc3ccccc3)CC2)N1"
readout_name = "GI50"
obs_value = "> 100 µM (inactive)"

[[record]]
compound = "CCC/C(Cl)=N\\OC(=O)Nc1ccc(Br)cc1"
readout_name = "GI50"
obs_value = "3.33 µM (inactive)"


Please give GI50, item by item, for the list that follows.
1. NP(=O)(Oc1c2occc2cc2ccc(=O)oc12)N(CCCl)CCCl (stereo not given)
2. CC(C)OP(=O)(OC(C)C)/C(I)=N/Nc1ccc([N+](=O)[O-])cc1
3. COC1=CC(=O)C2C(C1=O)[C@@H]1c3ccccc3OC[C@H]21 (stereo not given in full)

1: 49.1 µM (inactive); 2: > 100 µM (inactive); 3: > 100 µM (inactive)

Please give GI50, item by item, for the list that follows.
1. O=C(c1ccc(-c2ccccc2)cc1)N(Cc1cccnc1)C(=S)N(Cc1cccnc1)C(=O)c1ccc(-c2ccccc2)cc1
2. Cc1ccc(S(=O)(=O)NC2CCCCO2)cc1 (stereo not given)
3. COC(=O)NC(=O)c1cn(CCCOC(=O)CCCCCCCCC(=O)OCCCn2cc(C(=O)NC(=O)OC)c(=O)[nH]c2=O)c(=O)[nH]c1=O
4. CC1(C)OC2C(CO)OC(n3cnc(N)nc3=O)C2O1 (stereo not given)

8.95 µM (inactive)
> 100 µM (inactive)
36.7 µM (inactive)
> 100 µM (inactive)
